Values were extracted from PubChem BioAssay (NCI).

tested on: MDA-MB-468 breast; assay: NCI-60 one-dose screen, 48 h; settings: 10 µM unless noted
This is part of a sample that, as a whole, favours compounds with a hit. Of some 83,000 tested, about 20% had one in any assay. The source made the active and inactive calls. Rule for the calls: active = growth percent below 10; inactive = the rest.
In this exercise, the only acceptable responses are active, inactive

Name the outcome recorded for COc1ccc(/C(=C\c2ccc3c(c2)OCO3)C(=O)Nc2nc3ccccc3s2)cc1OC in the assay.
inactive

Name the outcome recorded for O=C(/C=C/c1cccc(O)c1)c1cccc(-n2cc(-c3ccc(Cl)cc3)[nH]c2=O)c1 in the assay.
inactive

Name the outcome recorded for CCCCCCCCCCCCCCCCCCNCc1ccc(Cl)cc1 in the assay.
active

Name the outcome recorded for CC(Oc1ccc(C(=O)O)cc1C(F)(F)F)c1ccc(Oc2ccccc2)cn1 (stereo not given) in the assay.
inactive

Name the outcome recorded for COc1cc2c(O)n(CCCn3ccnc3)c3c4cnc5cccc(c(=O)c3c2cc1OC)c54 in the assay.
active

Name the outcome recorded for CC(=O)O[C@H]1CC[C@]2(C)[C@H]3CC=C4[C@@H]5CC(C)(C)CC[C@]5(C(=O)NCCNCCN)CC[C@@]4(C)[C@]3(C)CC[C@H]2C1(C)C in the assay.
active

Name the outcome recorded for NC(N)=Nc1ccc(Oc2cccc(NC(N)=Nc3ccc(Cl)c(C(F)(F)F)c3)c2)cc1 in the assay.
inactive

Name the outcome recorded for COc1cccc(N2CCN(c3ncnc4c3[nH]c3ccc(F)cc34)C[C@@H]2C)c1 in the assay.
active

Name the outcome recorded for NC(=S)N/N=C/c1ccc(Cl)s1 in the assay.
inactive

Name the outcome recorded for CNC(=O)c1c(NC(=O)c2ccccc2C(F)(F)F)sc2c1CCC(=O)C2 in the assay.
inactive

Name the outcome recorded for COc1cc(Cl)c(C)cc1NC(=O)c1cc2ccccc2cc1O in the assay.
active

Name the outcome recorded for CCCCCCc1nc2c(c(C)nn2-c2ccccc2)c2c1CCCCC2 in the assay.
inactive

Name the outcome recorded for O=C(Nc1ccc(CN2CCOCC2)c(C(F)(F)F)c1)c1nc2ccc3[nH]ncc3c2c2c1CCCC2 in the assay.
inactive

Name the outcome recorded for COC(=O)[C@H](NC(=O)C1(C)CCC[C@]2(C)[C@H]3C[C@H]4C(C(C)C)=C[C@]3(CC[C@@H]12)[C@@H]1C(=O)CCC(=O)[C@@H]14)C(C)C (stereo not given in full) in the assay.
inactive

Name the outcome recorded for O=C(CN1CCN(c2cc(=O)n(-c3ccccc3)c3ccccc23)CC1)Nc1ccc([N+](=O)[O-])cc1 in the assay.
inactive

* * *

system: MDA-MB-468 breast; test: NCI-60 one-dose screen, 48 h (100 = growth as untreated, 0 = no growth, -100 = all killed); conditions: 10 µM unless noted
About 83,000 compounds went through this panel and 20% of them were active in at least one assay; those are over-represented in the sample as a whole.
So I've got a bunch of compounds here, and I need their growth values.
// return numeric value only (unit: %, not printed)

Form entry - test system: MDA-MB-468 breast; read-out: growth; compound: O=C(O)c1ccc(-c2ccc(/C=N/Nc3nc(Nc4ccccc4)nc(N4CCCCC4)n3)o2)cc1
92.1

Form entry - test system: MDA-MB-468 breast; read-out: growth; compound: COC(=O)CC[C@@H]1O[C@@H](c2cccc(C(F)(F)F)c2)[C@@H](O)[C@H]1O
89

Form entry - test system: MDA-MB-468 breast; read-out: growth; compound: COc1cc2oc(-c3cccc(NC(=O)c4cc(NC(=O)[C@H](C)NC(=O)OC(C)(C)C)ccc4C)c3)cc(=O)c2c(OC)c1OC
84.3

Form entry - test system: MDA-MB-468 breast; read-out: growth; compound: O=c1c(CNc2ccc(S(=O)(=O)Nc3nccs3)cc2)coc2ccccc12
92.9

Form entry - test system: MDA-MB-468 breast; read-out: growth; compound: COc1cc(/C=C2\C(=O)Nc3cc(Cl)ccc32)ccc1OCc1ccc(F)cc1
93

Form entry - test system: MDA-MB-468 breast; read-out: growth; compound: CC1=C(CC(=O)c2cccc([N+](=O)[O-])c2)C(=O)c2ccccc2C1=O
-52.5

Form entry - test system: MDA-MB-468 breast; read-out: growth; compound: CCN(Cc1ccc(Cl)c(Cl)c1)c1ccc2nc(N)nc(N)c2c1C
-84.2

Form entry - test system: MDA-MB-468 breast; read-out: growth; compound: O=C1c2cc3c(cc2-c2c1c1cc(F)c(F)cc1c(=O)n2CCCn1ccnc1)OCO3
-53.6

Form entry - test system: MDA-MB-468 breast; read-out: growth; compound: O=C(CCl)c1ccc2c(c1)CCCC2
116

Form entry - test system: MDA-MB-468 breast; read-out: growth; compound: Nc1ccc(S(=O)(=O)c2ccc(Cl)cc2)cc1
91.7

Form entry - test system: MDA-MB-468 breast; read-out: growth; compound: CCN(CC)CCCNc1c2ccc(Cl)cc2nc2ccc(OC)cc12
-34.6

Form entry - test system: MDA-MB-468 breast; read-out: growth; compound: Cc1cc(C)c(NC(=O)c2sc3nc4c(cc3c2N)CN(Cc2ccccc2)CC4)c(C)c1
14

Form entry - test system: MDA-MB-468 breast; read-out: growth; compound: CC(C)NC[C@@H](C(=O)N1CCN(c2ncnc3c2[C@H](C)C[C@H]3O)CC1)c1ccc(Cl)cc1
-18.7

Form entry - test system: MDA-MB-468 breast; read-out: growth; compound: COc1ccc(Nc2ncnc3c2sc2nc(C)cc(C)c23)cc1
95.1

Form entry - test system: MDA-MB-468 breast; read-out: growth; compound: CCCCCCCCCCCCCC(=O)C(C)N (stereo not given)
33.3
